# Experimental Conditions: glycan lost
Measured Metric: other: support of virus infection

CD164: N72Q (protein) parent chain: MSRLSRSLLWAATCLGVLCVLSADKNTTQHPNVTTLAPISNVTSAPVTSLPLVTTPAPETCEGRNSCVSCFNVSVVNTTCFWIECKDESYCSHNSTVSDCQVGNTTDFCSVSTATPVPTANSTAKPTVQPSPSTTSKTVTTSGTTNNTVTPTSQPVRKSTFDAASFIGGIVLVLGVQAVIFFLYKFCKSKERNYHTL    no change
CD164: N77Q (protein) parent chain: MSRLSRSLLWAATCLGVLCVLSADKNTTQHPNVTTLAPISNVTSAPVTSLPLVTTPAPETCEGRNSCVSCFNVSVVNTTCFWIECKDESYCSHNSTVSDCQVGNTTDFCSVSTATPVPTANSTAKPTVQPSPSTTSKTVTTSGTTNNTVTPTSQPVRKSTFDAASFIGGIVLVLGVQAVIFFLYKFCKSKERNYHTL    no change
CD164: N94Q (protein) parent chain: MSRLSRSLLWAATCLGVLCVLSADKNTTQHPNVTTLAPISNVTSAPVTSLPLVTTPAPETCEGRNSCVSCFNVSVVNTTCFWIECKDESYCSHNSTVSDCQVGNTTDFCSVSTATPVPTANSTAKPTVQPSPSTTSKTVTTSGTTNNTVTPTSQPVRKSTFDAASFIGGIVLVLGVQAVIFFLYKFCKSKERNYHTL    no change
